- Test system: NCI-H1944
- experiment-notes: relative viability (nuclei count vs DMSO), 5 days (fraction); higher = more cells survive
- experimental-setup: first compound 2 µM
Hi! Could you tag entries with relative viability below 0.4 as 1 (yes), and those at or above as 0 (no)? Much appreciated.

Q) State whether 0.4 exceeds relative viability recorded for COCC1(CO)C(=O)C2CCN1CC2 (stereo not given) [PRIMA-1MET] + CCNC(=O)c1noc(-c2cc(C(C)C)c(O)cc2O)c1-c1ccc(CN2CCOCC2)cc1 [Luminespib] (partner 0.01 µM) .
A) 0 (no)

Q) State whether 0.4 exceeds relative viability recorded for COCC1(CO)C(=O)C2CCN1CC2 (stereo not given) [PRIMA-1MET] + N=C(N)NC(=N)NCCc1ccccc1 [Phenformin] (partner 250 µM) .
A) 1 (yes)

Q) State whether 0.4 exceeds relative viability recorded for COCC1(CO)C(=O)C2CCN1CC2 (stereo not given) [PRIMA-1MET] + NC(=O)Nc1cc(-c2cccc(F)c2)sc1C(=O)N[C@H]1CCCNC1 [AZD7762] (partner 0.2 µM) .
A) 1 (yes)

Q) State whether 0.4 exceeds relative viability recorded for COCC1(CO)C(=O)C2CCN1CC2 (stereo not given) [PRIMA-1MET] + Nc1nc2[nH]cc(CCc3ccc(C(=O)N[C@@H](CCC(=O)O)C(=O)O)cc3)c2c(=O)[nH]1 [Pemetrexed] (partner 0.2 µM) .
A) 0 (no)

###

Task for the reader: assign each of the following compounds its reported relative viability.
- Tested on: NCI-H1299
- experiment-notes: relative viability (nuclei count vs DMSO), 5 days (fraction); higher = more cells survive
- experimental-setup: first compound 0.3162 µM
Form: value (number only, do not type unit).

// returns relative viability for CCN(CC)CCCCNc1ncc2cc(-c3cc(OC)cc(OC)c3)c(NC(=O)NC(C)(C)C)nc2n1 + CC(C)C[C@H](NC(=O)[C@H](Cc1ccccc1)NC(=O)c1cnccn1)B(O)O [Bortezomib] (partner 0.002 µM) with NCI-H1299; value = 0.979

// returns relative viability for O=c1cc(N2CCOCC2)oc2c(-c3cccc4c3sc3ccccc34)cccc12 + Cc1nc(NC(=O)N2CCC[C@H]2C(N)=O)sc1-c1ccnc(C(C)(C)C(F)(F)F)c1 [Alpelisib] (partner 2 µM) with NCI-H1299; value = 1.09

// returns relative viability for CCN(CC)CCCCNc1ncc2cc(-c3cc(OC)cc(OC)c3)c(NC(=O)NC(C)(C)C)nc2n1 + COc1cc2c(Oc3ccc(NC(=O)C4(C(=O)Nc5ccc(F)cc5)CC4)cc3F)ccnc2cc1OCCCN1CCOCC1 [Foretinib] (partner 0.25 µM) with NCI-H1299; value = 1.08

// returns relative viability for CCN(CC)CCCCNc1ncc2cc(-c3cc(OC)cc(OC)c3)c(NC(=O)NC(C)(C)C)nc2n1 + CC1(C)CCC(c2ccc(Cl)cc2)=C(CN2CCN(c3ccc(C(=O)NS(=O)(=O)c4ccc(N[C@H](CCN5CCOCC5)CSc5ccccc5)c(S(=O)(=O)C(F)(F)F)c4)cc3)CC2)C1 [Navitoclax] (partner 0.5 µM) with NCI-H1299; value = 1.09

// returns relative viability for O=c1cc(N2CCOCC2)oc2c(-c3cccc4c3sc3ccccc34)cccc12 + COc1cc2c(Oc3ccc(NC(=O)C4(C(=O)Nc5ccc(F)cc5)CC4)cc3F)ccnc2cc1OCCCN1CCOCC1 [Foretinib] (partner 0.25 µM) with NCI-H1299; value = 1.13

// returns relative viability for O=c1cc(N2CCOCC2)oc2c(-c3cccc4c3sc3ccccc34)cccc12 + CC(C)C[C@H](NC(=O)[C@H](Cc1ccccc1)NC(=O)c1cnccn1)B(O)O [Bortezomib] (partner 0.002 µM) with NCI-H1299; value = 1.03
